- SYSTEM NAME: recombinant eIF4E (Homo sapiens (Human), UniProt P06730)
- Sequence (P06730 whole entry): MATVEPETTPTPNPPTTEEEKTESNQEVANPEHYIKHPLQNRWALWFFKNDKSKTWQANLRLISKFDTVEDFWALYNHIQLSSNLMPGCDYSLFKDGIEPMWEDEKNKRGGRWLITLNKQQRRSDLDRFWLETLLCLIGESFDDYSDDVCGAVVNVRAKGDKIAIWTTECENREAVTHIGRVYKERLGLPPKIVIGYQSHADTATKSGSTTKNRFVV
- ASSAY SUMMARY: Fluorescence polarization competition assay for eIF4E binding potency
- RUN PARAMETERS: inhibition of eIF4E/EDA-m7GDP-ATTO-550 binding by 50%; Table 4B calculated values; read-out: IC50
- Experimental: Compounds were screened for eIF4E binding potency using a fluorescence polarization competition assay. All binding reactions were performed in fluorescence polarization buffer (FPB) containing 20 mM Tris pH 7.5, 100 mM NaCl, 1 mM DTT, and 0.02% Tween-20. Final binding reactions contained 75 nM recombinant eIF4E (Beryllium, custom order), 20 nM EDA-m^7GDP-ATTO-550 (Jena Bioscience, NU-827-550) and varying concentrations of the inhibitory compound of interest. […]
pIC50: −log10 of the molar value.
PROPERTY MEASURED: pIC50

Field: example entries. Status: answers known.
# SMILES CODE, SYSTEM NAME, pIC50
measured = [
    ("Cc1cc(-c2cc(Cl)ccc2OCCn2c(C)nc3c(C)nc(-c4cc(F)ccc4Cl)c(C#N)c3c2=O)c2scc(C(=O)O)c2n1", "recombinant eIF4E (Homo sapiens (Human), UniProt P06730)", 7.79),
    ("Cc1nc2cncc(C#N)c2c(=O)n1CCOc1ccc(Cl)cc1-c1ccc(C(=O)O)c(C(=O)O)c1", "recombinant eIF4E (Homo sapiens (Human), UniProt P06730)", 7.83),
]

[1] Cc1cc(-c2cc(Cl)ccc2OCCn2c(C)nc3cnc(N4CC(O)C4)c(C#N)c3c2=O)c2scc(C(=O)O)c2n1
[2] Cc1cc(-c2cc(Cl)ccc2OCCn2c(C)nc3cc(C(F)F)c(C4CC4)c(C#N)c3c2=O)c2scc(C(=O)O)c2n1
Exercise: Consider 1 and 2 . Which of these has its pIC50 at a higher number? Give the label under which the chosen entry appears.
Key: 1
